experiment: Blood concentration and pharmacokinetics after single subcutaneous administration to rats (LC/MSMS); type: in vivo, female SD rats; details: female, SD, rat, in vivo, sc, 12.5 mg/kg, blood concentration, Mean
PARAMETER: level at 2 h (ng/mL)
Give a bare numeral; the unit ng/mL is implied.

Quick one: level at 2 h for CCNC(=O)[C@@H]1CCCN1C(=O)[C@H](CCCNC(=N)N)NC(=O)[C@H](CC(C)C)NC(=O)[C@@H](CC(C)C)NC(=O)[C@H](Cc1ccc(O)cc1)NC(=O)[C@H](CO)NC(=O)[C@H](Cc1c[nH]c2ccccc12)NC(=O)[C@H](Cc1c[nH]cn1)NC(=O)[C@@H]1CCC(=O)N1 [Leuprolide, reference compound] ? 228

====

test: Blood concentration and pharmacokinetics after single subcutaneous administration to rats (LC/MSMS); format: in vivo, female SD rats; conditions: female, SD, rat, in vivo, sc, 12.5 mg/kg
PARAMETER: Tmax (min)
Give a bare numeral; the unit min is implied.

Quick one: Tmax for CCNC(=O)[C@@H]1CCCN1C(=O)[C@H](CCCNC(=N)N)NC(=O)[C@H](CC(C)C)NC(=O)[C@@H](CC(C)C)NC(=O)[C@H](Cc1ccc(O)cc1)NC(=O)[C@H](CO)NC(=O)[C@H](Cc1c[nH]c2ccccc12)NC(=O)[C@H](Cc1c[nH]cn1)NC(=O)[C@@H]1CCC(=O)N1 [Leuprolide, reference compound] ? 28.8

====

assay: Blood concentration and pharmacokinetics after single subcutaneous administration to rats (LC/MSMS); type: in vivo, female SD rats; conditions: female, SD, rat, in vivo, sc, 12.5 mg/kg, blood concentration, Mean
PARAMETER: level at 6 h (ng/mL)
Give a bare numeral; the unit ng/mL is implied.

Quick one: level at 6 h for CCNC(=O)[C@@H]1CCCN1C(=O)[C@H](CCCNC(=N)N)NC(=O)[C@H](CC(C)C)NC(=O)[C@@H](CC(C)C)NC(=O)[C@H](Cc1ccc(O)cc1)NC(=O)[C@H](CO)NC(=O)[C@H](Cc1c[nH]c2ccccc12)NC(=O)[C@H](Cc1c[nH]cn1)NC(=O)[C@@H]1CCC(=O)N1 [Leuprolide, reference compound] ? 2.88

====

test: Blood concentration and pharmacokinetics after single subcutaneous administration to rats (LC/MSMS); assay type: in vivo, female SD rats; details: female, SD, rat, blood, sc, 12.5 mg/kg, s.c. once 12.5 mg/kg, 1 hr., read-out: blood concentration, Mean
Where a SMILES comes first, the peptide text is derived from it. [ ]: non-standard residue; d: D form. The star is where a group is joined. Palmitoyl = CCCCCCCCCCCCCCCC(=O)*
PARAMETER: level at 1 h (ng/mL)
Give a bare numeral; the unit ng/mL is implied.

Quick one: level at 1 h for CCCCCCCCCCCCCCCC(=O)N[C@@H](CCC(N)=O)C(=O)N[C@@H](Cc1c[nH]cn1)C(=O)N[C@@H](Cc1c[nH]c2ccccc12)C(=O)N[C@@H](CO)C(=O)N[C@@H](Cc1ccc(O)cc1)C(=O)N[C@H](CC(C)C)C(=O)N[C@@H](CC(C)C)C(=O)N[C@@H](CCCNC(=N)N)C(=O)N1CCC[C@H]1C(=O)NCC [Derivative P2] (Palmitoyl-QHWSY[dL]LRP-NHEt) ? 16.9

====

experiment: Blood concentration and pharmacokinetics after single subcutaneous administration to rats (LC/MSMS); type: in vivo, female SD rats; conditions: female, SD, rat, blood, sc, 12.5 mg/kg, s.c. once 12.5 mg/kg, 14 days
Where a SMILES comes first, the peptide text is derived from it. [ ]: non-standard residue; d: D form. The star is where a group is joined. Palmitoyl = CCCCCCCCCCCCCCCC(=O)*
PARAMETER: level at 336 h (ng/mL)
Give a bare numeral; the unit ng/mL is implied.

Quick one: level at 336 h for CCCCCCCCCCCCCCCC(=O)N[C@@H](CCC(N)=O)C(=O)N[C@@H](Cc1c[nH]cn1)C(=O)N[C@@H](Cc1c[nH]c2ccccc12)C(=O)N[C@@H](CO)C(=O)N[C@@H](Cc1ccc(O)cc1)C(=O)N[C@H](CC(C)C)C(=O)N[C@@H](CC(C)C)C(=O)N[C@@H](CCCNC(=N)N)C(=O)N1CCC[C@H]1C(=O)NCC [Derivative P2] (Palmitoyl-QHWSY[dL]LRP-NHEt) ? 4.35

====

assay: Blood concentration and pharmacokinetics after single subcutaneous administration to rats (LC/MSMS); assay type: in vivo, female SD rats; settings: female, SD, rat, in vivo, sc, 12.5 mg/kg
PARAMETER: half-life
Form entry: enter the amount, then its unit.

Quick one: half-life for CCNC(=O)[C@@H]1CCCN1C(=O)[C@H](CCCNC(=N)N)NC(=O)[C@H](CC(C)C)NC(=O)[C@@H](CC(C)C)NC(=O)[C@H](Cc1ccc(O)cc1)NC(=O)[C@H](CO)NC(=O)[C@H](Cc1c[nH]c2ccccc12)NC(=O)[C@H](Cc1c[nH]cn1)NC(=O)[C@@H]1CCC(=O)N1 [Leuprolide, reference compound] ? 43.2 min

====

assay: Blood concentration and pharmacokinetics after single subcutaneous administration to rats (LC/MSMS); format: in vivo, female SD rats; settings: female, SD, rat, in vivo, sc, 12.5 mg/kg
PARAMETER: Cmax (ng/mL)
Give a bare numeral; the unit ng/mL is implied.

Quick one: Cmax for CCNC(=O)[C@@H]1CCCN1C(=O)[C@H](CCCNC(=N)N)NC(=O)[C@H](CC(C)C)NC(=O)[C@@H](CC(C)C)NC(=O)[C@H](Cc1ccc(O)cc1)NC(=O)[C@H](CO)NC(=O)[C@H](Cc1c[nH]c2ccccc12)NC(=O)[C@H](Cc1c[nH]cn1)NC(=O)[C@@H]1CCC(=O)N1 [Leuprolide, reference compound] ? 1020

====

test: Blood concentration and pharmacokinetics after single subcutaneous administration to rats (LC/MSMS); assay type: in vivo, female SD rats; conditions: female, SD, rat, blood, sc, 12.5 mg/kg, s.c. once 12.5 mg/kg, 7 days
Where a SMILES comes first, the peptide text is derived from it. [ ]: non-standard residue; d: D form. The star is where a group is joined. Palmitoyl = CCCCCCCCCCCCCCCC(=O)*
PARAMETER: level at 168 h
Form entry: enter the amount, then its unit.

Quick one: level at 168 h for CCCCCCCCCCCCCCCC(=O)N[C@@H](CCC(N)=O)C(=O)N[C@@H](Cc1c[nH]cn1)C(=O)N[C@@H](Cc1c[nH]c2ccccc12)C(=O)N[C@@H](CO)C(=O)N[C@@H](Cc1ccc(O)cc1)C(=O)N[C@H](CC(C)C)C(=O)N[C@@H](CC(C)C)C(=O)N[C@@H](CCCNC(=N)N)C(=O)N1CCC[C@H]1C(=O)NCC [Derivative P2] (Palmitoyl-QHWSY[dL]LRP-NHEt) ? 0.0119 µg/mL

====

experiment: Blood concentration and pharmacokinetics after single subcutaneous administration to rats (LC/MSMS); format: in vivo, female SD rats; conditions: female, SD, rat, blood, sc, 12.5 mg/kg, s.c. once 12.5 mg/kg, 1 day
Where a SMILES comes first, the peptide text is derived from it. [ ]: non-standard residue; d: D form. The star is where a group is joined. Palmitoyl = CCCCCCCCCCCCCCCC(=O)*
PARAMETER: level at 24 h (ng/mL)
Give a bare numeral; the unit ng/mL is implied.

Quick one: level at 24 h for CCCCCCCCCCCCCCCC(=O)N[C@@H](CCC(N)=O)C(=O)N[C@@H](Cc1c[nH]cn1)C(=O)N[C@@H](Cc1c[nH]c2ccccc12)C(=O)N[C@@H](CO)C(=O)N[C@@H](Cc1ccc(O)cc1)C(=O)N[C@H](CC(C)C)C(=O)N[C@@H](CC(C)C)C(=O)N[C@@H](CCCNC(=N)N)C(=O)N1CCC[C@H]1C(=O)NCC [Derivative P2] (Palmitoyl-QHWSY[dL]LRP-NHEt) ? 45
